Target: hTDO2 in human glioblastoma A172 cells (Homo sapiens (Human), UniProt P48775)
Sequence (P48775 whole entry): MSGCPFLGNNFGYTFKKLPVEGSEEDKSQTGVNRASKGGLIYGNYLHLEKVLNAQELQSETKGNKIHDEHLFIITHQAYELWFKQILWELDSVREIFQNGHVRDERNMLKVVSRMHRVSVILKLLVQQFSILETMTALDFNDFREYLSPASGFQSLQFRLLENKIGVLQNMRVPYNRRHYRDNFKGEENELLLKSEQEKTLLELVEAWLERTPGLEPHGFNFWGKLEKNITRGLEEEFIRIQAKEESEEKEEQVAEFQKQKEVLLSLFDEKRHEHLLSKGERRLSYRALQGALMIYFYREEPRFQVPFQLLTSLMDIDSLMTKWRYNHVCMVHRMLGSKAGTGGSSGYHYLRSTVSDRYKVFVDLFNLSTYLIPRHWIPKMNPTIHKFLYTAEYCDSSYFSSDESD
Assay: Cellular assay for TDO2 activity determination in A172 cells
Conditions: overnight incubation, kynurenine absorbance at 480 nm
pIC50: −log10 of the molar value.
ASSAY READOUT: pIC50

Some compounds with recorded pIC50:
C[C@H]1CN(S(=O)(=O)c2ccc(-c3c[nH]c4cc(F)ccc34)cc2)C[C@H](C)N1 [Example 15] :: 6.66
Cn1cnnc1CNS(=O)(=O)c1ccc(-c2c[nH]c3cc(F)ccc23)cc1 [Example 92] :: 6.25
O=S(=O)(c1ccc(-c2c[nH]c3cc(F)ccc23)cc1)N1C[C@H](O)[C@@H](O)C1 [Example 66] :: 7.08

[1] O=S(=O)(c1ccc(-c2c[nH]c3cc(F)ccc23)cc1)N1CCN[C@@H](CO)C1 [Example 17]
[2] CS(=O)(=O)c1ccc(-c2c[nH]c3cc(F)ccc23)cc1CN [Example 178]
Challenge: Form field 'greater pIC50' accepts 1 or 2 ; which applies? State your choice using its label.
Response given: 1
(1: 6.70, 2: 6.39)

[1] NC(=O)CCNS(=O)(=O)c1ccc(-c2c[nH]c3cc(F)ccc23)cc1CC(F)F [Example 175]
[2] O=S(=O)(c1ccc(-c2c[nH]c3cc(F)ccc23)cc1)N1CCNC(CO)C1 (centres unmarked) [Example 12]
Challenge: Min pIC50? 1 | 2 Write down the label attached to your selection.
Response given: 1
(1: 6.35, 2: 6.85)

---

Target: hTDO2 in human glioblastoma A172 cells (Homo sapiens (Human), UniProt P48775)
Assay: Cellular assay for TDO2 activity determination in A172 cells
Conditions: overnight incubation, kynurenine absorbance at 480 nm
pIC50: −log10 of the molar value.
ASSAY READOUT: pIC50

In the examples that follow, each entry is paired with its recorded pIC50.
Cn1cc(CN(CCO)S(=O)(=O)c2ccc(-c3c[nH]c4cc(F)ccc34)cc2)cn1 :: 4.04
NCCNS(=O)(=O)c1ccc(-c2c[nH]c3cc(F)ccc23)cc1 :: 7.02

[I] NS(=O)(=O)c1ccc(-c2c[nH]c3cc(F)ccc23)cc1
[II] C[C@H](CO)NS(=O)(=O)c1ccc(-c2c[nH]c3cc(F)ccc23)cc1
[III] CN(C)C(=O)Cc1cc(-c2c[nH]c3cc(F)ccc23)ccc1S(N)(=O)=O
Challenge: Endpoint returns the given molecules ordered by ascending pIC50. Write the labels out in the order the request specifies.
Response given: III, II, I
(III: 5.50, II: 6.80, I: 7.09)

---

Target: hTDO2 in human glioblastoma A172 cells (Homo sapiens (Human), UniProt P48775)
Assay: Cellular assay for TDO2 activity determination in A172 cells
Settings: overnight incubation, kynurenine absorbance at 480 nm
pIC50: −log10 of the molar value.
ASSAY READOUT: pIC50

These solved cases illustrate the format of a correct answer.
O=S(=O)(N[C@H]1CCOC1)c1ccc(-c2c[nH]c3cc(F)ccc23)cc1 [Example 64] :: 6.57
CN(CCC(N)=O)S(=O)(=O)c1ccc(-c2c[nH]c3cc(F)ccc23)cc1 [Example 27] :: 6.80
O=S(=O)(c1ccc(-c2c[nH]c3cc(F)ccc23)cc1)N1CCNCC1CO (centres unmarked) [Example 13] :: 6.68
O=S(=O)(NCCn1cncn1)c1ccc(-c2c[nH]c3cc(F)ccc23)cc1 [Example 99] :: 6.52
NC(=O)C1CN(S(=O)(=O)c2ccc(-c3c[nH]c4cc(F)ccc34)cc2)C1 [Example 67] :: 6.74
O=S1(=O)CCC(NS(=O)(=O)c2ccc(-c3c[nH]c4cc(F)ccc34)cc2)C1 (centres unmarked) [Example 87] :: 6.77

[A] O=S(=O)(c1ccc(-c2c[nH]c3cc(F)ccc23)cc1F)N1CCNCC1 [Example 28]
[B] O=S(=O)(c1ccc(-c2c[nH]c3cc(F)ccc23)cc1)N1CC[C@H](O)C1 [Example 79]
Challenge: Determine, for A and B , which has the greater value of pIC50. Bench note: the answer is the label of the chosen record.
Response given: B

---

Target: hTDO2 in human glioblastoma A172 cells (Homo sapiens (Human))
Assay: Cellular assay for TDO2 activity determination in A172 cells
Details: overnight incubation, kynurenine absorbance at 480 nm
ASSAY READOUT: IC50 (nM)

[1] NCc1cc(-c2c[nH]c3cc(F)ccc23)ccc1S(N)(=O)=O
[2] Cn1nccc1NS(=O)(=O)c1ccc(-c2c[nH]c3cc(F)ccc23)cc1
[3] Cc1cc(-c2c[nH]c3cc(F)ccc23)ccc1S(=O)(=O)N1CCNCC1
Challenge: Ranking field: IC50; order: falling. Could you list the labels in the order requested?
Response given: 2, 1, 3

---

Molecular target: hTDO2 in human glioblastoma A172 cells (Homo sapiens (Human))
Experiment: Cellular assay for TDO2 activity determination in A172 cells
Conditions: overnight incubation, kynurenine absorbance at 480 nm
ASSAY READOUT: IC50 (nM)

O=S(=O)(c1ccc(-c2c[nH]c3cc(F)ccc23)cc1)N1CCOC[C@H]1CO :: 133
NCCNS(=O)(=O)c1cc(F)cc(-c2c[nH]c3cc(F)ccc23)c1 :: 430
O=S(=O)(c1ccc(-c2c[nH]c3cc(F)ccc23)cc1)N1C[C@@H](O)[C@@H](O)C1 :: 130
N#Cc1cc(-c2c[nH]c3cc(F)ccc23)ccc1S(=O)(=O)N1CCNCC1 :: 170

[I] CNC(=O)n1cc(-c2ccc(S(=O)(=O)N3CCNCC3)cc2)c2ccc(F)cc21
[II] O=S(=O)(c1ccc(-c2c[nH]c3cc(F)ccc23)cc1O)N1CCNCC1
[III] CNS(=O)(=O)CCN(C)S(=O)(=O)c1ccc(-c2c[nH]c3cc(F)ccc23)cc1
Challenge: // ascending sort on recorded IC50 Give the labels in the order specified.
Response given: III, II, I
(III: 100 nM, II: 330 nM, I: 9100 nM)

---

Molecular target: hTDO2 in human glioblastoma A172 cells (Homo sapiens (Human), UniProt P48775)
Assay: Cellular assay for TDO2 activity determination in A172 cells
Details: overnight incubation, kynurenine absorbance at 480 nm
ASSAY READOUT: IC50 (nM)

O=S(=O)(NCCO)c1ccc(-c2c[nH]c3cc(F)ccc23)c(Cl)c1 :: 283

[a] N[C@@H]1CN(S(=O)(=O)c2ccc(-c3c[nH]c4cc(F)ccc34)cc2)C[C@H]1F
[b] O=S(=O)(NCCO)c1ccc(-c2c[nH]c3cc(F)ccc23)cc1
[c] O=C1CN(S(=O)(=O)c2ccc(-c3c[nH]c4cc(F)ccc34)cc2)CCN1
Challenge: Highest IC50 first, then in falling order down to the smallest. // list labels; follow requested order
Response given: a, c, b
(a: 250 nM, c: 170 nM, b: 66 nM)

---

Target: hTDO2 in human glioblastoma A172 cells (Homo sapiens (Human), UniProt P48775)
Experiment: Cellular assay for TDO2 activity determination in A172 cells
Format: cell-based
Settings: overnight incubation, kynurenine absorbance at 480 nm
pIC50: −log10 of the molar value.
ASSAY READOUT: pIC50

These recorded examples may help you get a feel for the data.
CN(CCS(N)(=O)=O)S(=O)(=O)c1ccc(-c2c[nH]c3cc(F)ccc23)cc1 :: 6.60
CN1CCN(C(=O)NCCNS(=O)(=O)c2ccc(-c3c[nH]c4cc(F)ccc34)cc2)CC1 :: 6.74
O=S(=O)(c1cccc(-c2c[nH]c3cc(F)ccc23)c1)N1CCNCC1 :: 6.47
CN(CC(O)c1ncc[nH]1)S(=O)(=O)c1ccc(-c2c[nH]c3cc(F)ccc23)cc1 (stereo not drawn) :: 6.77

[A] NCCNS(=O)(=O)c1cc(Cl)cc(-c2c[nH]c3cc(F)ccc23)c1
[B] CNC(=O)CCNS(=O)(=O)c1ccc(-c2c[nH]c3cc(F)ccc23)cc1
Challenge: Could you check which of A and B has a smaller value for pIC50? Choose, then provide that item's label.
Response given: A

---

Molecular target: hTDO2 in human glioblastoma A172 cells (Homo sapiens (Human))
Experiment: Cellular assay for TDO2 activity determination in A172 cells
Settings: overnight incubation, kynurenine absorbance at 480 nm
Procedure: The compounds of formula I inhibit the activity of human TDO2 in cells that constitutively express TDO2, such as A172 cells. A172 is a cell line derived from human brain glioblastoma cells. […] The plates were then centrifuged 5 min at 1000 rpm, and 100 μL of the supernatant were collected in a conical plate, 30 μL of TCA 30% were added and a further centrifuged at 3000×g for 10 minutes. […] Kynurenine concentrations were determined by measuring the absorbance at 480 nm. […]
ASSAY READOUT: IC50 (µM)

NS(=O)(=O)c1ccc(-c2c[nH]c3cc(F)ccc23)cc1CC(F)(F)F :: 0.247

[A] Cc1nc(CCNS(=O)(=O)c2ccc(-c3c[nH]c4cc(F)ccc34)cc2)c[nH]1
[B] CC(C)Cc1cc(-c2c[nH]c3cc(F)ccc23)ccc1S(=O)(=O)NCCC(N)=O
Challenge: Which has the smaller recorded IC50, A or B ? In your reply, give the label of the chosen option.
Response given: A
(A: 0.22 µM, B: 5.93 µM)
